B1: TCEB3B (parent)
chain: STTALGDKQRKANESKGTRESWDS

- Variants of: B1
- procedure details: protein stability index of a GFP-peptide fusion (GPS, HEK-293T) (PSI 1-6); higher = more stable;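 also: lentivirally expressed fusions sorted by FACS into six bins by GFP to DsRed ratio, PSI derived from sequencing read proportions per bin multiplied by bin number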
- experimental conditions: c terminus: a fixed tail appended
metric name: protein stability index
The response must contain the number and no unit.

Examples with answers:
sequence variant	protein stability index
G17I	2.92
S1T	3.61
E20C	3.66
W22A	5.29
T2C	3.8
D23F	3.93
D7N	3.43
A12R	3.56

Report measured protein stability index; entry is `D7R`
3.88

Return value of protein stability index for input `K11P` , no commentary.
4.23

Could you please provide reported protein stability index for `N13I` ? Thanks!
3.59

Output measured protein stability index for this item: `S15C`
3.58

Give the reported value of protein stability index for this record: `S15K`
4

Annotate the variant `G17K` with its measured protein stability index.
3.65

Return protein stability index for the following variant: `E14K`
3.33

Give protein stability index for the following variant: `A4T`
4.46

Identify protein stability index associated with the variant `L5H`
4.25

Report measured protein stability index; entry is `N13T`
3.78

Determine from records and report protein stability index for `N13Q`
4.1

Identify measured protein stability index associated with `A12L`
4.03

Identify measured protein stability index corresponding to `A4G`
3.75
